testTarget: full-length beta-Catenin (Uniprot ID P35222) (Homo sapiens (Human)) (UniProt P35222)
Sequence (P35222 whole entry): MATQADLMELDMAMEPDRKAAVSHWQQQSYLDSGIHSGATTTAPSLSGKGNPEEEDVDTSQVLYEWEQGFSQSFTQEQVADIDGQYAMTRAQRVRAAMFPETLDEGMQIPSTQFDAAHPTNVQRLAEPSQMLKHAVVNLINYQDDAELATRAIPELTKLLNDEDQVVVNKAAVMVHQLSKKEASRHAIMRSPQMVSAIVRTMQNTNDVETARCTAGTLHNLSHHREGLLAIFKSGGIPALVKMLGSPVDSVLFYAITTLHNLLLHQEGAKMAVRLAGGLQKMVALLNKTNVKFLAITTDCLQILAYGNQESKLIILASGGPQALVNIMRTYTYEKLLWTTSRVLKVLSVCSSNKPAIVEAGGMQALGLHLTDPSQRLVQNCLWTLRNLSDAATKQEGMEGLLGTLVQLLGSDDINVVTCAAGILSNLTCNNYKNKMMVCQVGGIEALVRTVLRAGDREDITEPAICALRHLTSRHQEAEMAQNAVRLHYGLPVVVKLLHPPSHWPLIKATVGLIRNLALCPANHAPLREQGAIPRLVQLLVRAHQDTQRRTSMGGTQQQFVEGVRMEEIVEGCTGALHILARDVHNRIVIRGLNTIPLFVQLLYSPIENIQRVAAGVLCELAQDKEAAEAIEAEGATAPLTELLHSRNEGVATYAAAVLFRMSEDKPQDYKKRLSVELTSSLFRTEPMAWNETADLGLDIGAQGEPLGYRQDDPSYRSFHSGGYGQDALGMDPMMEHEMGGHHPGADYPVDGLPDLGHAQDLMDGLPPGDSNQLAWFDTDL
methodDescription: fluorescence polarization competition; 10 nM full-length beta-catenin + 10 nM 5FAM-TCF4(10-53) probe
Starred links: 1 amine or outer side, 2 acyl side, 3 side chain; linkers in the order of their positions; H or OH if unused. Positions of bridges follow the written chain, without caps; N, C: chain ends. Non-standard residues stand in square brackets, D forms with d. Primed or numbered codes have the meaning given here. PyrS2″ = (S)-3-amino-1-((pent-4-en-1-yloxy)carbonyl)pyrrolidine-3-carboxylic acid (stapling residue), C=CCCCOC(=O)N1CC[C@@](N[*:1])(C(=O)[*:2])C1; B5(18) = 2,2-bis(4-pentenyl)glycine (2-amino-2-(pent-4-en-1-yl)hept-6-enoic acid), stitching residue, C=CCCCC(CCCC=C)(N[*:1])C(=O)[*:2]; TfeGA = (S)-2-amino-3-((carboxymethyl)(2,2,2-trifluoroethyl)amino)propanoic acid, O=C([C@H](CN(CC(=O)[*:3])CC(F)(F)F)N[*:1])[*:2]; Phe(2-Cl) = N[C@@H](Cc1ccccc1Cl)C(=O)O; Bta = N[C@@H](Cc1csc2ccccc12)C(=O)O; αAllylPro = C=CC[C@@]1(C(=O)O)CCCN1; tBuAla = CC(C)(C)C[C@H](N)C(=O)O
As shown below, each of these binders has a reported pIC50 value.
Remember the convention: pIC50 equals -log10 of concentration in molar.

Task item: Which pIC50 value is on record for Ac-[αAllylPro]D[tBuAla][B5(18)]DNAAFS[PyrS2″][Phe(2-Cl)][Bta]Q-NH2 (staple 1-4, 4-11) [I-1018] ?
Reply: 7.59

Task item: Similarly, Ac-[αAllylPro]D[tBuAla][B5(18)]D[TfeGA]ASFN[PyrS2″][Phe(2-Cl)][Bta]Q-NH2 (staple 1-4, 4-11) [I-1004] ?
Reply: 8.30

Hey, just so you know, these numbers are from patent US20240116985A1.
